Where do the numbers come from? From the supplement of paper PMC9170038.

System: K4 kissing-loop RNA reporter;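 further: bound reporter read as fluorescence of individual clusters on recovered sequencing chips by microscopy, with normalized cluster intensities fitted with a binding model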
Assay Comment: apparent KD of K4 kissing-loop reporter; higher = weaker reporter binding
Measurement Context: Eterna round: R107; input ligand: tryptophan 2.4 mM
Readout Type: apparent KD of K4 kissing-loop reporter (nM)
Could you give me the number in nM? Just the number is fine.

CUCGUGGGUUUGAGAGGGCUUGUGGGAAGUGAGGAUAUUUAGGGAGGGAGAAGGUACUAUAGAAUAUAGUGAUGUUAUAUAUGGG [SSFMNA.U] | 147
GGGAGUAGUGCGGCCGCCACUGUGAGGGAAGAAGAAUAUAGUGAUGUUAUAUAGGAAGGGAAGAAUAGGACCGGGCAUUAGAUUU [SSTRyptB.aB] | 198
AUUUUUUUGUCAGGAUAUUAGUAUGCUUUUGGUUUGUUAGUGAUGUUGAUAUUUUGUUUAUGUAUUUAAGAAGGGAUUUAGCGGU [etvuumullin] | 255
AAACUUGCAGUGAUGUUGCAAGUAGGUGAUACCAGCAUCGAAAGAUGCCCUUGGCAGCACCAACACUGUAAGUAAGUAUCACCAA [(H1)-(H2)-(T1)-(T2)-(H)'-(T)'_Design2] | 105
UGACAUUGCUCAGAUACCAGACAUGAGCAUCAGCCAUGUGCCAACGUACAAAUAAUAAAUGUCCCUUGGCAGCUGAGCAAUGUCU [TheoBX 15] | 59.9
UGAUAGGACAGAAGGAGCGGGAGUGAUGUUCCCAAUAGGAGGUCUAGCAAAGCUGGACCCUCCCAGGUAGGUCGCUGUCCUAUCU [ArgBX 3 #SwitchBubble #StaticStem] | 108

Qu. Quick one: give measured apparent KD of K4 kissing-loop reporter for AUCGUUGUCUGAGGAUAUCGGUUAUCUGUAGUGAUGUUACAGUAUAUUGAUAUUAUAGUUUCUUUUCGAGAAGGCAGACUACGUA [JR_Nu_ExcFMNB_Sub021]
Ans. 66.4

Qu. Quick one: give measured apparent KD of K4 kissing-loop reporter for AAGCGUGUCGCGGCCGCCACUCCUGAGUGAUGUUCAGAAAGCAGUUUUUUAUUCAGGAAAAGCGCGAGGACCGGGCGACGCCGAU [theeternabot_sameState_KL_Trp_B_1]
Ans. 515

Qu. Quick one: give measured apparent KD of K4 kissing-loop reporter for ACGCGCGUGCGCUGGAAAGCGCACGCGCGUCGAGGACCGGUACGGCCGCCACUCGCUCGCGCCGAGUGAUGUUCGGCCGGCGAAC [#2 SameState - Tryptophan_A Attempt #2 (HarryS)]
Ans. 645
